These data points were gathered from patent US20250195415A1.

# measurement_description: Pharmacokinetic studies for implants and NPs in Hu-PBL mice
# Type: in vivo
# setup_conditions: NSG (NOD.Cg-Prkdcscid Il2rgtm1Wjl/SzJ), Hu-PBL, mouse, plasma, subcutaneous; implants, day 56; read-out: sustained plasma concentration at end of experiment (molar)
measure_name: concentration at 56 d (µM)
Give bare numbers, in µM.

Determine from records and report concentration at 56 d for "C#C[C@]1(CO)O[C@@H](n2cnc3c(N)nc(F)nc32)C[C@@H]1O"
25

----------
# measurement_description: Pharmacokinetic studies for implants and NPs in Hu-PBL mice
# Type: in vivo
# setup_conditions: NSG (NOD.Cg-Prkdcscid Il2rgtm1Wjl/SzJ), Hu-PBL, mouse, plasma, intraperitoneal; NPs, day 42; read-out: plasma level maintained at end of experiment
measure_name: concentration at 42 d

Determine from records and report concentration at 42 d for "C#C[C@]1(CO)O[C@@H](n2cnc3c(N)nc(F)nc32)C[C@@H]1O"
≥ 4000 ng/mL

----------
# measurement_description: Pharmacokinetic studies for implants and NPs in Hu-PBL mice
# Format: in vivo
# setup_conditions: NSG (NOD.Cg-Prkdcscid Il2rgtm1Wjl/SzJ), Hu-PBL, mouse, plasma, intraperitoneal; NPs, day 42; read-out: plasma level maintained at end of experiment (molar)
measure_name: concentration at 42 d

Determine from records and report concentration at 42 d for C#C[C@]1(CO)O[C@@H](n2cnc3c(N)nc(F)nc32)C[C@@H]1O [EFdA, 4′-Ethynyl-2-fluoro-2′-deoxyadenosine]
≥ 13 µM

----------
# measurement_description: Pharmacokinetic studies for implants and NPs in Hu-PBL mice
# Format: in vivo
# setup_conditions: NSG (NOD.Cg-Prkdcscid Il2rgtm1Wjl/SzJ), Hu-PBL, mouse, plasma, subcutaneous; implants, day 56; read-out: sustained plasma concentration at end of experiment
measure_name: concentration at 56 d
Express the reported value numerically, then name its unit.

Determine from records and report concentration at 56 d for C#C[C@]1(CO)O[C@@H](n2cnc3c(N)nc(F)nc32)C[C@@H]1O [EFdA, 4′-Ethynyl-2-fluoro-2′-deoxyadenosine]
7500 ng/mL
